Attribution: patent US20250154163A1

Entries and their pIC50
# subject-of-test: human HSD17β13 (stable HEK293T cell line overexpressing human HSD17β13) (Homo sapiens, UniProt Q7Z5P4)
# Sequence (Q7Z5P4 20-300): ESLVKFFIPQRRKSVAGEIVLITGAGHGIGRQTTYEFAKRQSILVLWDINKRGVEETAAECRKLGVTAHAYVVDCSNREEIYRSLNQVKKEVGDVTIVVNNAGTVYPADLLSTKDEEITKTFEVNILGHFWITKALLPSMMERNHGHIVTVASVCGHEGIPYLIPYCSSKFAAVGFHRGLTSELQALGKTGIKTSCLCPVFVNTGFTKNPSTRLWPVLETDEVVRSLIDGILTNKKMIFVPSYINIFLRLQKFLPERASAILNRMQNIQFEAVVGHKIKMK
# assay-method-text: HSD17β13 inhibitor cell-based screening assay (conversion of estradiol-d2 to estrone-d2 by RF-MS)
# measurement-conditions: conversion of estradiol-d2 to estrone-d2 after 24 hours
pIC50: −log10 of the molar value.

Solved entries:
For Cc1cc(C2CC2)c(-c2nc3sc4c(O)c(Cl)ccc4c3c(=O)n2Cc2cnco2)s1 , what is its reported pIC50?
> 7.00

For COc1ccc(-c2nc3sc4c(O)c(Cl)ccc4c3c(=O)n2Cc2cc(C)no2)c(C2CC2)c1 , what is its reported pIC50?
> 7.00

Continuing:
For COc1ccc(-c2nc3sc4c(O)c(Cl)cc(Cl)c4c3c(=O)n2Cc2cnco2)c(C2CC2)c1 , what is its reported pIC50?
6.30 to 7.00

For COc1cc(C2CC2)c(-c2nc3sc4c(O)c(Cl)ccc4c3c(=O)n2Cc2cnco2)cn1 , what is its reported pIC50?
6.30 to 7.00
